The measurements presented in this section are drawn from patent US12116353B1.

Experiment: Equilibrium solubility in aqueous buffers
Assay type: physicochemical
Details: aqueous potassium phosphate (KH2PO4) buffer, thermodynamic from solid; aqueous buffer pH 7.4, shaken overnight at room temperature, LC-MS/MS
observed_property: solubility (µM)
Give bare numbers, in µM.

**Q:** Query: solubility; subject: O=C(Nc1ccc(CN2CCOCC2)cc1)c1ccc(Cl)cc1
**A:** 12.5

* * *

Assay: Equilibrium solubility in aqueous buffers
Assay type: physicochemical
Conditions: aqueous potassium phosphate (KH2PO4) buffer, thermodynamic from solid; aqueous buffer pH 6.0, shaken overnight at room temperature, LC-MS/MS
observed_property: solubility
I'd appreciate it if you included the unit after the number.

**Q:** Could you tell me which solubility is on file for Cl.O=C(Nc1ccc(CN2CCOCC2)cc1)c1ccc(Cl)cc1 ?
**A:** 8.17 mM

* * *

Assay: Equilibrium solubility in aqueous buffers
Format: physicochemical
Conditions: aqueous potassium biphthalate buffer, thermodynamic from solid; aqueous buffer pH 4.0, shaken overnight at room temperature, LC-MS/MS
observed_property: solubility (mM)
Numbers only, in mM.

**Q:** Recorded solubility of Cl.O=C(Nc1ccc(CN2CCOCC2)cc1)c1ccc(Cl)cc1 , please.
**A:** 12.5
